Entry source: patent US20240132578A1

Target: HIV-1 Env of isolate APV_17 (subtype B) (HIV-1)
Test: cell-based or functional assay
ASSAY_METRIC: IC50 (µg/mL), pseudovirus neutralization

// solved cases for IC50 (µg/mL), pseudovirus neutralization follow
Ask: Which IC50 (µg/mL), pseudovirus neutralization is listed for PGT-136 (antibody, V domains shown) VH: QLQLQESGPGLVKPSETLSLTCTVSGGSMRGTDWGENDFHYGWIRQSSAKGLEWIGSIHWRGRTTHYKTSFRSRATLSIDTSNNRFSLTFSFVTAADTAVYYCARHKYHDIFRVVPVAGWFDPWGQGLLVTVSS VL: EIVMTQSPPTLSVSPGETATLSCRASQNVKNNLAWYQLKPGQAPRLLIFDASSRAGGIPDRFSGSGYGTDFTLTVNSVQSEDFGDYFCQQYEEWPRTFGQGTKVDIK ?
Reply: > 50 µg/mL

Ask: // lookup IC50 (µg/mL), pseudovirus neutralization for PGT-137 (antibody, V domains shown) VH: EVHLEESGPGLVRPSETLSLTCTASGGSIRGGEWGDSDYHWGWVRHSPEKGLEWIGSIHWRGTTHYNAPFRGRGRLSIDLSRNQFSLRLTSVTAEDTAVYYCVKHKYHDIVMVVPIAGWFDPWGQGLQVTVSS VL: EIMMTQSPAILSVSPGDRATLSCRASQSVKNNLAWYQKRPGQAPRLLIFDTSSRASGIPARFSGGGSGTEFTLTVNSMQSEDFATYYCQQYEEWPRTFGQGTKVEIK
Reply: > 50 µg/mL

Next:
Ask: Requested field: IC50 (µg/mL), pseudovirus neutralization. Item: PGT-130 (antibody, V domains shown) VH: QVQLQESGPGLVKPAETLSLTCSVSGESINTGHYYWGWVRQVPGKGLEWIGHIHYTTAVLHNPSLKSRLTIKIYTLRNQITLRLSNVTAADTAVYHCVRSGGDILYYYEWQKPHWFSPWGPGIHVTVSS VL: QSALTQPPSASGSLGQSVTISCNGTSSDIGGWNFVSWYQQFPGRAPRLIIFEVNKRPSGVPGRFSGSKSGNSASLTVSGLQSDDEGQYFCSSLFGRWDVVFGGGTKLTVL
Reply: 10.7 µg/mL
